tested on: COX-derived PGE2 in A549 lung adenocarcinoma cells; assay: PGE2 biosynthesis from [2H8]AA in A549 cells; type: cell-based, human; details: Homo sapiens, A549, read-out: IC50 for inhibition of PGE2 biosynthesis
assay-endpoint: pIC50
For clarity, pIC50 is expressed as the negative log10 of concentration in mol/L.

Lookup: Query (compound): CC(=O)Oc1ccccc1C(=O)O ; field requested: pIC50
Found: 5.14
